SYSTEM: T1, human CRH receptor type 2 (human, UniProt Q13324 1-411)
T1 sequence (looked up): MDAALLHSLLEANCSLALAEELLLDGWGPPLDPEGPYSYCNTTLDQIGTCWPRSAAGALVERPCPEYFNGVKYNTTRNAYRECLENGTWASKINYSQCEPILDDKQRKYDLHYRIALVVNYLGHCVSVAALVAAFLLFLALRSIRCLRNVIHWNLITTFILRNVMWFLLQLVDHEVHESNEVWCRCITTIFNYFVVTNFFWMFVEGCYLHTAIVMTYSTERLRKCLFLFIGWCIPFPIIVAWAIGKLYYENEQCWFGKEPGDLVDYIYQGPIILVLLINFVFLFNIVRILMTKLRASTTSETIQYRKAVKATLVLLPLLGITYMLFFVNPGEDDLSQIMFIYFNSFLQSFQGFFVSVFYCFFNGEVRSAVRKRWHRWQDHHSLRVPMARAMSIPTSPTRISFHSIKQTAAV
ASSAY_TEXT: cell-based or functional assay
No end group written: not given here.
MEASUREMENT_KIND: pA50, cAMP

Solved entries (count: 5):
Q. Sample TKFTLSLDVPTNIMNLLFNICKAKNLRAQAAANAHLMAQI (NES-PEG (about 20 kDa) on Cys 21; C-terminal amide) [Pegylated Cys-variant CRHR2 peptide agonist (NES linker, PEG about 20 kDa), SEQ ID NO: 75] — what was its pA50, cAMP?
A. 8.24 -log M

Q. Need pA50, cAMP, item TKFTLSLDVPTNIMNLLFNIAKAKNCRAQAAANAHLMAQI-NH2 [Cys-variant CRHR2 peptide agonist, SEQ ID NO: 27]
A. 8.76 -log M

Q. Which pA50, cAMP value belongs to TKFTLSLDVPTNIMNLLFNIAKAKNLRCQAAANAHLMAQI (NES-PEG MW30000 on Cys 28; C-terminal amide) [Pegylated Cys-variant CRHR2 peptide agonist (NES-PEG MW30000), SEQ ID NO: 99] ?
A. 8.94 -log M

Q. Data request, read-out pA50, cAMP, for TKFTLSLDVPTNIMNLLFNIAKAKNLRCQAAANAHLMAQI (NES-PEG MW5000 on Cys 28; C-terminal amide) [Pegylated Cys-variant CRHR2 peptide agonist (NES-PEG MW5000), SEQ ID NO: 96]
A. 8.74 -log M

Q. Give its pA50, cAMP value. Item: TKFTLSLDVPTNIMNLLFNIAKAKNLRAQAAANAHLMCQI-NH2 [Cys-variant CRHR2 peptide agonist, SEQ ID NO: 39]
A. 9.21 -log M

Further cases:
Q. pA50, cAMP lookup needed for TKFTLSLDVPTNIMNLLFNIAKAKNLRAQCAANAHLMAQI (NES-PEG (about 20 kDa) on Cys 30; C-terminal amide) [Pegylated Cys-variant CRHR2 peptide agonist (NES linker, PEG about 20 kDa), SEQ ID NO: 84] , thanks.
A. ~6.82 -log M

Q. GET /values?readout=pA50, cAMP&item= TKFTLSCDVPTNIMNLLFNIAKAKNLRAQAAANAHLMAQI-NH2 [Cys-variant CRHR2 peptide agonist, SEQ ID NO: 8]
A. ~6.82 -log M
